Assay: n-Octanol-PBS buffer partition coefficient, log D of the compound at 370 kBq after 3 mins at pH 7.4
Type: physicochemical
Mark true for reported logD at 0.05 h of 3 or greater; mark false for anything smaller.

Is logD at 0.05 h at least 3? Consider CNc1ccc(-c2cc3cc(OCCOCCOCC[18F])ccc3o2)cn1 true

Would you say CN(C)c1ccc(-c2cc3cc(OCCOCCOCC[18F])ccc3o2)cn1 shows logD at 0.05 h at minimum 3? false

Evaluate CN(C)c1ccc(-c2nc3cc(OCCOCCOCC[18F])ccc3o2)cc1 : logD at 0.05 h at minimum 3? true

Does the compound CNc1ccc(-c2cc3cc(OCCOCCOCC[18F])ccc3o2)cc1 have recorded logD at 0.05 h that is 3 or more? true

Entry CN(C)c1ccc(-c2nc3ccc([125I])cc3o2)cc1 : is its logD at 0.05 h no less than 3? false

* * *

Experiment: Displacement of [125I]IMPY from amyloid beta (1 to 42) fibrils after 2 hrs by gamma-counting analysis
Please respond with reported Ki for every item in the list.
Express it in nM; write the number only.

GET /values?readout=Ki&item= CNc1ccc(-c2nc3cc(OCCOCCOCC[18F])ccc3o2)cc1 9.3

Given the entry CNc1ccc(/C=C/c2ccc(OCCOCCOCC[18F])nc2)cc1 , report its measured Ki. 2.87

Please give the measured Ki for this compound: CN(C)c1ccc(-c2cc3cc(OCCOCCOCC[18F])ccc3o2)cn1 1

Give the measured Ki of CN(C)c1ccc(-c2nc3cc(OCCOCCOCCF)ccc3o2)cc1 . 3.9

* * *

Assay: Displacement of [125I]IMPY from amyloid beta (1 to 42) fibrils after 2 hrs by gamma-counting analysis
readoutLabel: pKi
pKi here: minus log base 10 of the concentration, concentration in moles per litre.

// returns reported pKi for input CN(C)c1ccc(-c2nc3ccc([125I])cc3o2)cc1 9.10

If you can, please state the reported pKi value of CNc1ccc(-c2nc3cc(OCCOCCOCCF)ccc3o2)cc1 . 8.03

Consider the molecule CNc1ccc(-c2cc3cc(OCCOCCOCC[18F])ccc3o2)cn1 and give its measured pKi. 8.62

Recorded pKi for CN(C)c1ccc(-c2nc3cc(OCCOCCOCC[18F])ccc3o2)cc1 , please? 8.41

Would you kindly share the measured pKi for CN(C)c1ccc(-c2cc3cc(OCCOCCOCC[18F])ccc3o2)cc1 ? 8.70

Please give the measured pKi for this molecule: CNc1ccc(-c2cc3cc(OCCOCCOCC[18F])ccc3o2)cc1 8.41

* * *

I'd be grateful if you could share measured Ki for these entries.
Assay: Displacement of [125I]TZDM from amyloid beta (1 to 40) fibrils
Response body: numeric value in nM, unit text excluded.

Recorded Ki for CNc1ccc(-c2cc3cc([125I])ccc3o2)cc1 , please? 0.4

# lookup: Ki of CN(C)c1ccc(-c2cc3cc([125I])ccc3o2)cc1 0.4

# input compound: Oc1ccc(-c2cc3cc([125I])ccc3o2)cc1 ; wanted: its Ki 0.4

I am curious: what Ki value has been reported for CN(C)c1ccc(-c2nc3ccc([125I])cc3o2)cc1 ? 0.8

I'd like to know its Ki. The compound in question is CN(C)c1ccc(-c2cc3ccc([125I])cc3o2)cc1 0.4

* * *

System: Brain
Assay: Ratio of drug uptake in brain at 2 mins to drug uptake in brain at 60 mins in ddY mouse at 370 kBq/100 ul, iv
Assay type: ADME, organism-based
Conditions: in vivo
readoutLabel: Ratio
Provide a numeric answer; units are not to be included.

Given the compound CNc1ccc(-c2cc3cc(OCCOCCOCC[18F])ccc3o2)cn1 , what is its reported Ratio? 2.34

Quick one: Ratio for CNc1ccc(-c2cc3cc(OCCOCCOCC[18F])ccc3o2)cc1 ? 2.11

Quick one: Ratio of CN(C)c1ccc(-c2nc3cc(OCCOCCOCC[18F])ccc3o2)cc1 ? 2.5

Entry under review: CNc1ccc(-c2nc3cc(OCCOCCOCC[18F])ccc3o2)cc1 . Reported Ratio? 2.67

# get_value(readout='Ratio', item= CNc1ccc(/C=C/c2ccc(OCCOCCOCC[18F])nc2)cc1 [FLORBETAPIR F 18] ) 3.9

Give the measured Ratio of CN(C)c1ccc(-c2nc3ccc([125I])cc3o2)cc1 . 1.13

Ratio for CN(C)c1ccc(-c2cc3cc(OCCOCCOCC[18F])ccc3o2)cn1 ? 2.11

Would you mind telling me what Ratio value was observed for CN(C)c1ccc(-c2cc3cc(OCCOCCOCC[18F])ccc3o2)cc1 ? 1.03

Hello, the source for this data is ChEMBL document CHEMBL2176925, in case you need it.
